- System: SR
- assay-details: NCI tumour cell line growth inhibition, 48 h
Active and inactive are the calls of the source. Rule as the data show it: active = GI50 up to about 1.1 µM and inactive = higher.
Reply using exactly one outcome from true (1) (active), false (0) (inactive)

Consider the worked cases shown below.
compound | qualitative-label
Cc1cc2c3ccccc3n(C)c2c2c1C(=O)C=CC2=O | false (0)
CN(C)NC1=C([N+](=O)[O-])C=NN(c2ccccc2)C1 | true (1)
O=C(O)C(O)(c1ccc(-c2ccccc2)cc1)c1ccc(-c2ccccc2)cc1 | false (0)
CCOP(=O)(OCC)C(C(=O)OC)C(=O)C(=O)Nc1cccc(O)c1 (centres undefined) | false (0)
CC(=O)O[C@H]1C(N(C)C(=O)c2ccccc2)CC[C@]2(C)C3CC[C@@]4(C)C(CC(O)[C@@H]4C(C)N(C)C)[C@@H]3CCC12 (some centres undefined) | false (0)

Name the outcome recorded for N#CC(C#N)/N=N/c1ccc(-c2nc3ccccc3[nH]2)cc1 in the assay. false (0)

Outcome? O=[N+]([O-])c1ccc(C2=NN(c3ccccc3)C[N+](c3ccc(Br)cc3)=N2)cc1 false (0)

For this compound, state the assay outcome: C[C@@H]1CC[C@@H](C)[C@](C)(CCc2ccoc2)C/C=C\C=C/1C(=O)O false (0)

Query: recorded result category for Cc1cc2c(s1)C(=O)c1sccc1C2=O in this test false (0)

---

- Test system: K562
- assay-details: NCI tumour cell line growth inhibition, 48 h
Calls of active or inactive are those of the source. Rule as the data show it: active = GI50 up to about 1.1 µM and inactive = higher.
Could you please pick one outcome from this set? yes (1) (active), no (0) (inactive)

See these solved cases before continuing.
molecule | qualitative-label
CN(C)CCNC(=O)c1cccc2c1nc(-c1ccccn1)c1ccccc12 | no (0)
CCN(CC)CCn1c2ccccc2c(=O)c2c(O)ccc(O)c21 | no (0)
CCOC(=O)C(/N=N\c1ccc(S(N)(=O)=O)cc1)C(C)=O (configuration not stated) | no (0)

Status in this test for NNC(=O)CCc1ccc2ccc3ccccc3c2c1 ? no (0)

Recorded test call requested for CC1CC/C(=C\c2ccc(Cl)cc2)C2OC(N)=C(C#N)C(c3ccc(Cl)cc3)=C12 (configuration not stated) no (0)

---

- Test system: SK-MEL-2
- assay-details: NCI tumour cell line growth inhibition, 48 h
Calls of active or inactive are those of the source. No stated cut-off is given here; in the data, active = GI50 up to about 1.1 µM and inactive = higher.
One label from this list, please: true (1) (active), false (0) (inactive)

compound | qualitative-label
OCc1ccc2c(c1)CC1(C2)Cc2cc3c(cc2C1)CCC3 | false (0)
CC(C)(C)[Si](C)(C)OCC1OC(n2cnc3c(N)ncnc32)CC1OS(C)(=O)=O (configuration not stated) | false (0)
CCc1nc(N)nc(N)c1-c1ccc([N+](=O)[O-])c(NCc2ccccc2)c1 | false (0)
C=CCC(O[Si](C)(C)C(C)(C)C)c1cc(O[Si](C)(C)C(C)(C)C)ccc1OC (configuration not stated) | false (0)

Hey, what did the test say about CC(C)c1cccc(C(C)C)c1/N=C(/N)C#N ? false (0)

Per the records of this test, what outcome belongs to CC1Oc2c(c(O)cc3oc(=O)cc(-c4ccccc4)c23)C(=O)C1C (configuration not stated) ? false (0)

Hello, I am checking results. What call was entered for N#CC(C#N)/N=N/c1ccc(-c2nc3ccccc3[nH]2)cc1 ? false (0)

Outcome? Cc1cc2c(s1)C(=O)c1sccc1C2=O true (1)

Call for entry Cc1cc2c(cc1-c1cc3c(cc1C)C(C(C)C)=C(O)C(=O)/C3=C\Nc1c(C)n(C)n(-c3ccccc3)c1=O)/C(=C/Nc1c(C)n(C)n(-c3ccccc3)c1=O)C(=O)C(O)=C2C(C)C : false (0)
